B1: tRNA (parent)
chain: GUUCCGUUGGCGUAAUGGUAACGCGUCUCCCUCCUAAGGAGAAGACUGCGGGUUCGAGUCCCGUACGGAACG

variants of: B1; experiment: yeast fitness relative to wild type (ratio to wild type); higher = fitter; tRNA-Arg(CCU), competitive growth, 37 C, YPD
This sample holds only a part of the variants without activity.
Please respond with reported yeast fitness for every item in the list.
Answers are plain numbers.

// worked examples, yeast fitness included
GGUCCGUUGGGGUAAUGGUUACGGGUCUCCCUCCUAAGGAGAAGACUGCGGGUUCGAGUCCCGUACGGAACG [U2G C11G A20U C24G] = 0.534
GUUCCGUUGGCAUAAUGGUAACGCGUCUCCCUCCUAAGGAGAAGACUGCGGGUUCGUGUCCCGUACGGAACG [G12A A57U] = 0.668
GUUUCGUUGGCGUAAUGGUAACGCGUCUCCCUCGUAAGGAGAAGACUGCGGGUUCGAGUCCCGUACGGAACG [C4U C34G] = 0.768
GUUCCGUUGGCGUAAUGGUAACACGUCUCCCUCCUAAGGAGAAGACUGCGAGUUCGAGUCACGUAAGGAACG [G23A G51A C61A C66A] = 0.545

Hello, I would appreciate it if you could give yeast fitness for each entry below.
1. GUUCCGUUGGCGUAAUGGUAACGCGUCUCCCUCCUAAGGAGAAGACAACGGGUUCGAGUCCCGUACGGAUCG [U47A G48A A70U]
2. GUUCCGUUGGCGUAAUGGUAACGCGUCUCCCUCCUAAGGUGAAGACUGCGGGUUCGAGUCGCGUACGCAACG [A40U C61G G68C]
3. GUUCAGUUGGAGUAAUGGUAACGCGUCUCCCUCCUAAGGAGAAGACUGCGGGUUCGAGUCCCGUACGGAACG [C5A C11A]
4. GUUCCGUUGGCGUACUGGUAUCGCGUCUCCCUCCUAAGGAGAAGACUGCGGGUUCGAGUCCUGUACGGAACG [A15C A21U C62U]
5. GUUCCGUUCGCGUAGUGGUAACGCGUAUCCGUCCUAAGGAGAAGACUGCAGGUUCGAGUCCCGUACGGAACG [G9C A15G C27A C31G G50A]
6. GUUCCGUUGGCGUAAUGGUAACGCGUCUCCCUCCUAAGGAGAAGACUGCGGGUUCGAGUCUCGUUCGGAACG [C61U A65U]

A)
1. 0.748
2. 0.571
3. 0.592
4. 0.53
5. 0.642
6. 0.724
